Measured values drawn from PubChem BioAssay AID1918952 for this set.

System: LG0703-F948-PDC complex spheroid viability
assayExplanation: Anticancer human tumor LG0703-F948-PDC patient-derived lung adenocarcinoma cell line growth inhibition
measurementConditions: second compound 10 µM; first compound 3 µM; stronger effect = lower value
property: viability, T/C (%)
Numbers only, in %.

Use the examples below as a reference point.
CCN(c1cc(-c2ccc(CN3CCOCC3)cc2)cc(C(=O)NCc2c(C)cc(C)[nH]c2=O)c1C)C1CCOCC1 + NC1CCC(NC2CC2c2ccccc2)CC1    105
COc1cc(C2c3cc4c(cc3C(OC3OC5COC(C)OC5C(O)C3O)C3COC(=O)C23)OCO4)cc(OC)c1O (stereo not drawn) + NC1CC1c1ccc(-c2cccc(O)c2)cc1    66.8

Q. Entry Nc1ccccc1NC(=O)c1ccc(CNC(=O)OCc2cccnc2)cc1 + NC1CCC(NC2CC2c2ccccc2)CC1 : reported viability, T/C = ?
A. 0.92

###

Tested on: LG0703-F948-PDC complex spheroid viability
assayExplanation: Anticancer human tumor LG0703-F948-PDC cell line growth inhibition;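 further: spheroids exposed to agents for seven days before readout; 100% = DMSO vehicle control wells as normalization base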
measurementConditions: second compound 1 µM; first compound 0.3 µM; stronger effect = lower value
Description: Multicellular complex tumor spheroid response to LSD1 Inhibitor Iadademstat in combination with a variety of drugs and investigational agents in selected tumor cell lines The current study was undertaken to assess response to LSD1 inhibitors in combination with standard-of-care drugs and investigational agents in solid tumor complex spheroid models as well as in the K-562 leukemia. […] Compounds. […] If the clinical Cmax for an agent had not been determined, the highest concentration tested was 10 microM. […]
Note to self: viability, T/C under 40% means Y, ties and anything higher get N.

Look over these answered cases.
COc1cc(C2c3cc4c(cc3C(OC3OC5COC(C)OC5C(O)C3O)C3COC(=O)C23)OCO4)cc(OC)c1O (stereo unspecified) + NC1CCC(NC2CC2c2ccccc2)CC1    N
NS(=O)(=O)OCC1CC(n2ccc3c(NC4CCc5ccccc54)ncnc32)CC1O (stereo unspecified) + NC1CCC(NC2CC2c2ccccc2)CC1    N
Nc1ncn(C2CC(O)C(CO)S2)c(=O)n1 (stereo unspecified) + NC1CCC(NC2CC2c2ccccc2)CC1    N
CCN(c1cc(-c2ccc(CN3CCOCC3)cc2)cc(C(=O)NCc2c(C)cc(C)[nH]c2=O)c1C)C1CCOCC1 + NC1CC1c1ccc(-c2cccc(O)c2)cc1    N
NS(=O)(=O)OCC1CC(n2ccc3c(NC4CCc5ccccc54)ncnc32)CC1O (stereo unspecified) + NC1CC1c1ccc(-c2cccc(O)c2)cc1    N

Q. Does the reported viability, T/C of O=C(C=Cc1cccc(S(=O)(=O)Nc2ccccc2)c1)NO + NC1CC1c1ccc(-c2cccc(O)c2)cc1 stay below 40%?
A. Y

Q. Does the reported viability, T/C of COc1cc(C2c3cc4c(cc3C(OC3OC5COC(C)OC5C(O)C3O)C3COC(=O)C23)OCO4)cc(OC)c1O (stereo unspecified) + NC1CC1c1ccc(-c2cccc(O)c2)cc1 stay below 40%?
A. N

###

Test system: LG0703-F948-PDC complex spheroid viability
assayExplanation: Anticancer human tumor LG0703-F948-PDC cell line growth inhibition;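 further: spheroids exposed to agents for seven days before readout; 100% = DMSO vehicle control wells as normalization base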
measurementConditions: second compound 0.316 µM; first compound 0.00949 µM; stronger effect = lower value
property: viability, T/C (%)
Numbers only, in %.

Use the examples below as a reference point.
CCN(c1cc(-c2ccc(CN3CCOCC3)cc2)cc(C(=O)NCc2c(C)cc(C)[nH]c2=O)c1C)C1CCOCC1 + NC1CCC(NC2CC2c2ccccc2)CC1    107
NS(=O)(=O)OCC1CC(n2ccc3c(NC4CCc5ccccc54)ncnc32)CC1O (centres undefined) + NC1CCC(NC2CC2c2ccccc2)CC1    111
Nc1ncn(C2CC(O)C(CO)S2)c(=O)n1 (centres undefined) + NC1CCC(NC2CC2c2ccccc2)CC1    121

Read the next record carefully.
Q. Entry O=C(C=Cc1cccc(S(=O)(=O)Nc2ccccc2)c1)NO + NC1CC1c1ccc(-c2cccc(O)c2)cc1 : reported viability, T/C = ?
A. 113
